Experiment: cytotoxicity toward MRC5 cells, same conditions without virus infection
Format: cell-based
Settings: human
Parameter cytotoxicity at 3 days, 25 µM: see the listing below.
EXPERIMENTAL ENDPOINT: cytotoxicity at 3 days, 25 µM (%)

1. CC(=O)OC[C@@]1(C)[C@H]2CC[C@@H]3CN(Cc4ccco4)[C@@H](C4=CCOC4=O)C[C@H]3[C@]2(C)CC[C@H]1OC(C)=O [4o] :: -4.5
2. CC(=O)OC[C@@]1(C)[C@H]2CC[C@@H]3CN(Cc4ccc(C(F)(F)F)cc4)[C@@H](C4=CCOC4=O)C[C@H]3[C@]2(C)CC[C@H]1OC(C)=O [4h] :: -5.4
3. CC(=O)OC[C@@]1(C)[C@H]2CC[C@@H]3CN(Cc4ccc(F)c(Cl)c4)[C@@H](C4=CCOC4=O)C[C@H]3[C@]2(C)CC[C@H]1OC(C)=O [4n] :: -4.9
4. CC(=O)OC[C@@]1(C)[C@H]2CC[C@@H]3CN(Cc4ccc(O)cc4)[C@@H](C4=CCOC4=O)C[C@H]3[C@]2(C)CC[C@H]1OC(C)=O [4j] :: -5.2
5. CC1(C)OC[C@@]2(C)[C@H]3CC[C@@H]4CN(Cc5ccc([N+](=O)[O-])cc5)[C@@H](C5=CCOC5=O)C[C@H]4[C@]3(C)CC[C@H]2O1 [9h] :: -4.7
6. CC1(C)OC[C@@]2(C)[C@H]3CC[C@@H]4CN(Cc5ccc(C(C)(C)C)cc5)[C@@H](C5=CCOC5=O)C[C@H]4[C@]3(C)CC[C@H]2O1 [9g] :: -0.2

* * *

Listing of recorded cytotoxicity at 3 days, 25 µM by entry.
Test: cytotoxicity toward MRC5 cells, same conditions without virus infection
Assay type: cell-based
Conditions: human
EXPERIMENTAL ENDPOINT: cytotoxicity at 3 days, 25 µM (%)

1. C=C1CC[C@@H]2[C@](C)(CO)[C@H](O)CC[C@@]2(C)[C@@H]1C/C=C1/C(=O)OC[C@H]1O [andrographolide 1, andrographolide, reference compound] :: 23.6
2. CC(=O)OC[C@@]1(C)[C@H]2CC[C@@H]3CN(C4CCCC4)[C@@H](C4=CCOC4=O)C[C@H]3[C@]2(C)CC[C@H]1OC(C)=O [4w] :: -4.5
3. CC(=O)OC[C@@]1(C)[C@H]2CC[C@@H]3CN(CCC(C)C)[C@@H](C4=CCOC4=O)C[C@H]3[C@]2(C)CC[C@H]1OC(C)=O [4v] :: 3.2
4. CC(=O)OC[C@@]1(C)[C@H]2CC[C@@H]3CN(C4CCCCCC4)[C@@H](C4=CCOC4=O)C[C@H]3[C@]2(C)CC[C@H]1OC(C)=O [4y] :: -18.2
5. CC(=O)OC[C@@]1(C)[C@H]2CC[C@@H]3CN(Cc4cccc(Cl)c4)[C@@H](C4=CCOC4=O)C[C@H]3[C@]2(C)CC[C@H]1OC(C)=O [4m] :: -13.2
6. CC(=O)OC[C@@]1(C)[C@H]2CC[C@@H]3CN(Cc4cccc5ccccc45)[C@@H](C4=CCOC4=O)C[C@H]3[C@]2(C)CC[C@H]1OC(C)=O [4q] :: -14.7
7. CC(=O)OC[C@@]1(C)[C@H]2CC[C@@H]3CN(Cc4ccc(Br)cc4)[C@@H](C4=CCOC4=O)C[C@H]3[C@]2(C)CC[C@H]1OC(C)=O [4d] :: -3
8. C[C@]1(CO)[C@H]2CC[C@@H]3CN(Cc4ccccc4)[C@@H](C4=CCOC4=O)C[C@H]3[C@]2(C)CC[C@H]1O [11a] :: -4.8
9. C[C@@]12COCO[C@@H]1CC[C@]1(C)[C@@H]2CC[C@@H]2CN(Cc3cccs3)[C@@H](C3=CCOC3=O)C[C@H]21 [10d] :: -13.4
10. CC(=O)OC[C@@]1(C)[C@H]2CC[C@@H]3CN(Cc4ccccc4)[C@@H](C4=CCOC4=O)C[C@H]3[C@]2(C)CC[C@H]1OC(C)=O [4a] :: 15.5
11. CCCN1C[C@H]2CC[C@@H]3[C@](C)(COC(C)=O)[C@H](OC(C)=O)CC[C@@]3(C)[C@@H]2C[C@@H]1C1=CCOC1=O [4r] :: -5.6
12. Cc1ccc(CN2C[C@H]3CC[C@@H]4[C@]5(C)COC(C)(C)O[C@@H]5CC[C@@]4(C)[C@@H]3C[C@@H]2C2=CCOC2=O)cc1 [9f] :: -1.6
13. CC(=O)OC[C@@]1(C)[C@H]2CC[C@@H]3CN(Cc4cccs4)[C@@H](C4=CCOC4=O)C[C@H]3[C@]2(C)CC[C@H]1OC(C)=O [4p] :: 4.2
14. CC(=O)OC[C@@]1(C)[C@H]2CC[C@@H]3CN(Cc4ccccc4F)[C@@H](C4=CCOC4=O)C[C@H]3[C@]2(C)CC[C@H]1OC(C)=O [4l] :: -19.5
